- assay_target: hP2X4 (human purinergic P2X receptor subtype 4) (Homo sapiens)
- protocol_conditions: P2X4 IC50 (nM), HEK293 cells stably expressing hP2X4; agonist BZ-ATP 2.5 μM; FLIPR calcium
measured_metric: IC50

Answered cases to consult:
Cc1ccc(N2CCc3c(cc(NC(=O)Cc4ccccc4Cl)cc3S(N)(=O)=O)C2)nc1 = 50 to 200 nM
NS(=O)(=O)c1cc(NC(=O)Cc2ccccc2Cl)cc2cnc(F)cc12 = 50 to 200 nM
NS(=O)(=O)c1cc(NC(=O)Cc2ccccc2Cl)cc2cnc(C(F)(F)F)cc12 = < 10 nM
NS(=O)(=O)c1cc(NC(=O)Cc2ccccc2Cl)cc2cnc(C3CC3)cc12 = < 10 nM
NS(=O)(=O)c1cc(NC(=O)Cc2ccccc2Cl)cc2c1CCN(C(=O)c1ccccc1)C2 = 10 to 50 nM
CC(=O)N1CC(Oc2nccc3c(S(N)(=O)=O)cc(NC(=O)Cc4ccccc4Cl)cc23)C1 = 10 to 50 nM
NS(=O)(=O)c1cc(NC(=O)Cc2ccccc2Cl)cc2cnc(N3CCOCC3)cc12 = 50 to 200 nM

For "NS(=O)(=O)c1cc(NC(=O)Cc2ccccc2Cl)cc2c1CCN(c1cc(Cl)c(F)cn1)C2" , what is its reported IC50?
50 to 200 nM

* * *

Listed compounds paired with reported IC50
- assay_target: hP2X4 (human purinergic P2X receptor subtype 4) (Homo sapiens, UniProt Q99571)
- Sequence (Q99571 1-404 isoform Q99571-2): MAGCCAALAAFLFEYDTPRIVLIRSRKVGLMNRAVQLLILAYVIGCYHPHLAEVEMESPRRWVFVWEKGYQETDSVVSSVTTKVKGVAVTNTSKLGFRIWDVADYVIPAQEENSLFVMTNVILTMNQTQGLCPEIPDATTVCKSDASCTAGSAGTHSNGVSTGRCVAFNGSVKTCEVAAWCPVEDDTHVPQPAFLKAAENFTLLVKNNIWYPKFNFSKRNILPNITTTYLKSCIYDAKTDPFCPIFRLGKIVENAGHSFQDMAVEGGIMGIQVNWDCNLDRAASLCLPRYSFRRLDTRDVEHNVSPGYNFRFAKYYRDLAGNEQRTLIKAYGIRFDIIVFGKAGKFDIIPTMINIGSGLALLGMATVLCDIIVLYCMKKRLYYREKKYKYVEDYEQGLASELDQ
- protocol_conditions: P2X4 IC50 (nM), HEK293 cells stably expressing hP2X4; agonist BZ-ATP 2.5 μM; FLIPR calcium

The cases that follow already have their IC50 on record.
COCCOc1ccc2c(S(N)(=O)=O)cc(NC(=O)Cc3ccccc3Cl)cc2n1 [Compound 74] = 50 to 200 nM
COc1ccc(Oc2cc3c(S(N)(=O)=O)cc(NC(=O)Cc4ccccc4Cl)cc3cn2)cc1 [Compound 82] = 200 to 5000 nM
NS(=O)(=O)c1cc(NC(=O)Cc2ccccc2Cl)cc2cc(-n3ccnc3)ncc12 [Compound 50] = 200 to 5000 nM
COc1nccc2c(S(N)(=O)=O)cc(NC(=O)Cc3c(O)cccc3Cl)cc12 [Compound 62] = 200 to 5000 nM
COc1ccc2c(S(N)(=O)=O)cc(NC(=O)Cc3ccccc3Cl)cc2n1 [Compound 58] = 50 to 200 nM
NS(=O)(=O)c1cc(NC(=O)Cc2ccccc2Cl)cc2cnccc12 [Compound 6] = 10 to 50 nM

Request the reported IC50 associated with NS(=O)(=O)c1cc(NC(=O)Cc2ccccc2Cl)cc2c(C(F)(F)F)nccc12 [Compound 29]
10 to 50 nM

Request the reported IC50 associated with NS(=O)(=O)c1cc(NC(=O)Cc2ccccc2Cl)cc2nc(-n3cccn3)ccc12 [Compound 49]
50 to 200 nM
